Hi there, I'd appreciate the recorded pEC50 for every entry that follows.
TEST_TARGET: human CYP11B2 (Homo sapiens (Human), UniProt P19099)
Sequence (P19099 25-503): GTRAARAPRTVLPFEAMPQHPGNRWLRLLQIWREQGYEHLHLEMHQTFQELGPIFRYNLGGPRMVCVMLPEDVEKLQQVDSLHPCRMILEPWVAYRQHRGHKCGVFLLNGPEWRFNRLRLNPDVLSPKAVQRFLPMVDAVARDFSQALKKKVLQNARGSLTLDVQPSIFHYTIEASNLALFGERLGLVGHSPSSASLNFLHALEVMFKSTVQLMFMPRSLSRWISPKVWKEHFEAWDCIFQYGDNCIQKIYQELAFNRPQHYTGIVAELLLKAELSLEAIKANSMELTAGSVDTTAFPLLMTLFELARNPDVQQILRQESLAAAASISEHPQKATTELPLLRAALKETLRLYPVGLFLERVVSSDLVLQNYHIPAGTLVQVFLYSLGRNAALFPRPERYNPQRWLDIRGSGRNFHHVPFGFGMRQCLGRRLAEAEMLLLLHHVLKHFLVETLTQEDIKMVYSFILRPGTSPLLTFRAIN
ASSAY_PROTOCOL: G-402 cellular enzyme assay, human CYP11B2 (aldosterone release)
Type: cell-based
TEST_PARAMETERS: G-402 cells, 1 μM Deoxycorticosterone
Numbers only, as −log10 of the molar value.

Field: example entries. Status: answers known.
{"MOLECULE": "CCNC(=O)CC1CCCc2c(-c3ccc(C(F)(F)F)cc3F)cncc21 (racemic)", "OBSERVED_MEASUREMENT": 6.67}
{"MOLECULE": "OCCC1CCCc2c(-c3ccc(C(F)(F)F)cc3F)cncc21 (racemic)", "OBSERVED_MEASUREMENT": 8.30}
{"MOLECULE": "O=C(CC1CCc2c(-c3ccc(C(F)(F)F)c(F)c3)cncc21)Nc1cc[nH]n1 (racemic)", "OBSERVED_MEASUREMENT": 8.10}
{"MOLECULE": "O=C(CC1CCCc2c(-c3ccc(C(F)(F)F)cc3F)cncc21)NCC1CC1 (racemic)", "OBSERVED_MEASUREMENT": 7.15}
{"MOLECULE": "CCOC(=O)CC1CCc2c(-c3ccc(C(F)(F)F)c(F)c3)cncc21 (racemic)", "OBSERVED_MEASUREMENT": 8.05}

Would you be so kind as to report pEC50 for each listed record?
1. CN(C)C(=O)CC1CCCc2c(-c3ccc(C(F)(F)F)cc3F)cncc21 (racemic) [Example 26]
2. C[C@H]1CCCN1C(=O)CC1CCc2c(-c3ccc(C(F)(F)F)cc3F)cncc21 (mixture of isomers)
3. O=C(CC1CCCc2c(-c3ccc(C(F)(F)F)cc3F)cncc21)NC1CC1 (racemic)
4. CN(C)C(=O)CC1CCc2c(-c3ccc(C(F)(F)F)cc3F)cncc21 (racemic)
5. COCCNC(=O)CC1CCCc2c(-c3ccc(C(F)(F)F)cc3F)cncc21 (racemic)
6. O=C(CC1CCc2c(-c3ccc(C(F)(F)F)cc3F)cncc21)N1CC(CO)C1 (racemic)
7. O=C(CC1CCc2c(-c3ccc(C(F)(F)F)cc3F)cncc21)N1CCCC1 (racemic)

[7.49, 8.22, 7.43, 7.17, 6.65, 7.35, 7.92]

// each molecule listed below needs its pEC50
1. CCN(C)C(=O)CC1CCc2c(-c3ccc(C(F)(F)F)cc3F)cncc21 (racemic)
2. CCOC(=O)CC1CCCc2c(-c3ccc(C(F)(F)F)cc3F)cncc21 (racemic)
3. CCCNC(=O)CC1CCc2c(-c3ccc(C(F)(F)F)c(F)c3)cncc21 (racemic)
4. CNC(=O)CC1CCc2c(-c3ccc(C(F)(F)F)c(F)c3)cncc21 (racemic)
5. O=C(CC1CCc2c(-c3ccc(C(F)(F)F)cc3F)cncc21)N1CCC1 (racemic)
6. CN(C)C(=O)CC1CCCc2c(-c3ccc(C(F)(F)F)cc3F)cncc21 (single isomer, unassigned; (+)) [Example 27]
7. O=C(CC1CCc2c(-c3ccc(C(F)(F)F)c(F)c3)cncc21)NC1CC1 (racemic)

1. 7.36
2. 7.57
3. 7.68
4. 7.77
5. 7.32
6. 7.44
7. 7.89

Report pEC50 for every entry below.
1. CNC(=O)CC1CCCc2c(-c3ccc(C(F)(F)F)cc3F)cncc21 (racemic)
2. CCN(C(=O)CC1CCc2c(-c3ccc(C(F)(F)F)cc3F)cncc21)C1CC1 (racemic)
3. COCCNC(=O)CC1CCc2c(-c3ccc(C(F)(F)F)c(F)c3)cncc21 (racemic)
4. CCNC(=O)CC1CCc2c(-c3ccc(C(F)(F)F)c(F)c3)cncc21 (racemic)
5. CN(C)C(=O)CC1CCCc2c(-c3ccc(C(F)(F)F)cc3F)cncc21 (single isomer, unassigned; (-)) [Example 28]
6. CC(C)N(C)C(=O)CC1CCc2c(-c3ccc(C(F)(F)F)cc3F)cncc21 (racemic)

1. 7.96
2. 7.54
3. 7.49
4. 7.89
5. 6.88
6. 7.74
